Reference source: patent EP4768499A1

- testSummary: Membrane permeability test using Caco-2 cells with preincubation
- Assay type: in vitro ADME
- conditionsUsed: Caco-2; preincubation 20 to 24 hours; Apical FaSSIF/HBSS pH 6.0, Basal HBSS 4% BSA pH 7.4; 180 minutes; read-out: Caco2 Papp
Positions of bridges follow the written chain, without caps; N, C: chain ends. Non-standard residues stand in square brackets, D forms with d. Residues, ends and D or L forms follow the SMILES beside them. *: point of attachment. NMeF = CN[C@@H](Cc1ccccc1)C(=O)O; NMeT = CN[C@H](C(=O)O)[C@@H](C)O; hPhe = N[C@@H](CCc1ccccc1)C(=O)O; NMeD = CN[C@@H](CC(=O)O)C(=O)O; NMeL = CN[C@@H](CC(C)C)C(=O)O; NMeV = CN[C@H](C(=O)O)C(C)C; NMeA = CN[C@@H](C)C(=O)O; Piperidide = C1CCN(*)CC1; Abu = CC[C@H](N)C(=O)O; Sar = CNCC(=O)O; tBu = CC(C)(C)*
measuredQuantity: Papp A→B (×10⁻⁶ cm/s)

molecule	measuredQuantity	recordedResult
CC(C)C[C@@H]1NC(=O)[C@H]([C@@H](C)O)N(C)C(=O)[C@@H](C(C)C)NC(=O)C[C@@H](C(=O)N2CCCCC2)NC(=O)[C@H](C(C)C)N(C)C(=O)[C@H](C)N(C)C(=O)[C@H](Cc2ccccc2)N(C)C(=O)[C@@H]2CCCN2C(=O)[C@H](CC(C)C)N(C)C(=O)CN(C)C(=O)[C@H](CCc2ccccc2)NC(=O)[C@H](CC(C)C)N(C)C(=O)[C@H](C(C)C)N(C)C1=O [pd116] ([dV][NMeT]L[NMeV][NMeL][hPhe][Sar][NMeL]P[NMeF][NMeA][NMeV]D-Piperidide; lactam N-13)	Papp A→B	0.19
CC[C@@H]1NC(=O)[C@H](CC(C)C)N(C)C(=O)[C@H]([C@@H](C)O)NC(=O)[C@H](C(C)C)N(C)C(=O)[C@H](Cc2ccccc2)N(C)C(=O)[C@@H](C(C)C)NC(=O)C[C@@H](C(=O)N2CCCCC2)N(C)C(=O)CN(C)C(=O)[C@H](Cc2ccccc2)N(C)C(=O)[C@H](C)N(C)C(=O)[C@H](COC(C)(C)C)NC(=O)[C@H](CC(C)C)N(C)C(=O)CN(C)C1=O [pd162] ([dV][NMeF][NMeV]T[NMeL][Abu][Sar][NMeL]S(tBu)[NMeA][NMeF][Sar][NMeD]-Piperidide; lactam N-13)	Papp A→B	0.51

----------
- testSummary: Metabolic stability test: liver microsomal stability assay
- Format: in vitro ADME, mouse
- conditionsUsed: male, pH 7.4; mouse liver microsomes 0.5 mg protein/mL, compound 1 µM, presence of NADPH; read-out: Mouse Hepatic Microsome CLh,int NADPH(+)
Starred links: 1 amine or outer side, 2 acyl side, 3 side chain; linkers in the order of their positions; H or OH if unused. Positions of bridges follow the written chain, without caps; N, C: chain ends. Non-standard residues stand in square brackets, D forms with d. Residues, ends and D or L forms follow the SMILES beside them. *: point of attachment. NMedβ3hAla = C[C@H](CC(=O)[*:2])N(C)[*:1]; NMeF = CN[C@@H](Cc1ccccc1)C(=O)O; NMeGABA = CN(CCCC(=O)[*:2])[*:1]; NMeI = CC[C@H](C)[C@H](NC)C(=O)O; NMeT = CN[C@H](C(=O)O)[C@@H](C)O; NMeD = CN[C@@H](CC(=O)O)C(=O)O; NMeL = CN[C@@H](CC(C)C)C(=O)O; d(β3hA) = C[C@@H](N)CC(=O)O; NMeA = CN[C@@H](C)C(=O)O; Piperidide = C1CCN(*)CC1; Abu = CC[C@H](N)C(=O)O; NBuGly = CCCCNCC(=O)O; βAla = NCCC(=O)O; Sar = CNCC(=O)O; tBu = CC(C)(C)*
measuredQuantity: microsomal CLint at 1 µM (µL/min/mg)

compound	recordedResult
CCCCN1CC(=O)N[C@@H](CC(C)C)C(=O)N(C)[C@@H]([C@@H](C)CC)C(=O)N(C)[C@@H]([C@@H](C)O)C(=O)N(C)[C@@H](Cc2ccccc2)C(=O)N[C@@H]([C@@H](C)CC)C(=O)N(C)[C@@H](CC(C)C)C(=O)N[C@H](C(=O)N2CCCCC2)CC(=O)N(C)[C@@H](C)C(=O)N[C@@H](CC(C)C)C(=O)N(C)[C@@H](CC(C)C)C(=O)N(C)[C@@H](Cc2ccccc2)C(=O)N[C@@H](CC)C1=O [pd111] ([NMeA]L[NMeL][NMeF][Abu][NBuGly]L[NMeI][NMeT][NMeF]I[NMeL]D-Piperidide; lactam N-13)	18.7
CC[C@@H]1NC(=O)[C@H](Cc2ccccc2)N(C)C(=O)[C@H](CC(C)C)N(C)C(=O)[C@H](CC(C)C)NC(=O)[C@H](C)N(C)C(=O)C[C@@H](C(=O)N2CCCCC2)N(C)C(=O)[C@H](CC(C)C)N(C)C(=O)[C@H]([C@@H](C)CC)NC(=O)[C@H](Cc2ccccc2)N(C)C(=O)[C@H]([C@@H](C)O)N(C)C(=O)[C@H]([C@@H](C)CC)N(C)C(=O)[C@H](CC(C)C)NC(=O)CN(C)C1=O [pd163] ([NMeA]L[NMeL][NMeF][Abu][Sar]L[NMeI][NMeT][NMeF]I[NMeL][NMeD]-Piperidide; lactam N-13)	28.2
CC[C@H](C)[C@@H]1NC(=O)[C@H](CC(C)C)N(C)C(=O)[C@H](CC(C)C)NC(=O)[C@H](C)N(C)C(=O)C[C@@H](C)NC(=O)[C@H](CC(C)C)NC(=O)[C@H](CC(C)C)N(C)C(=O)CN(C)C(=O)[C@H](C(C)C)NC(=O)[C@H]([C@@H](C)CC)N(C)C(=O)[C@H](COC(C)(C)C)NC(=O)[C@H](CC(C)C)N(C)C(=O)CCNC(=O)[C@H](Cc2ccccc2)N(C)C1=O [pd007] (cyclo(I[NMeF][βAla][NMeL]S(tBu)[NMeI]V[Sar][NMeL]L[d(β3hA)][NMeA]L[NMeL]))	40.8
CC[C@@H]1NC(=O)[C@H](CC(C)C)N(C)C(=O)[C@H](COC(C)(C)C)NC(=O)[C@H]([C@@H](C)CC)NC(=O)[C@H](Cc2ccccc2)N(C)C(=O)CNC(=O)[C@H]([C@@H](C)CC)NC(=O)[C@H](CC(C)C)N(C)C(=O)CCCN(C)C(=O)C[C@@H](C)N(C)C(=O)[C@H](CC(C)C)NC(=O)[C@H](C)N(C)C(=O)[C@H](Cc2ccccc2)N(C)C(=O)[C@H](C(C)C)NC1=O [pd063] (cyclo([Abu]V[NMeF][NMeA]L[NMedβ3hAla][NMeGABA][NMeL]IG[NMeF]IS(tBu)[NMeL]))	47.5

----------
- testSummary: Membrane permeability test using Caco-2 cells with preincubation
- Format: in vitro ADME
- conditionsUsed: Caco-2; preincubation 20 to 24 hours; Apical FaSSIF/HBSS pH 6.0, Basal HBSS 4% BSA pH 7.4; 180 minutes; read-out: Caco2 Papp
Non-standard residues stand in square brackets, D forms with d. Residues, ends and D or L forms follow the SMILES beside them. *: point of attachment. NMeF = CN[C@@H](Cc1ccccc1)C(=O)O; NMeT = CN[C@H](C(=O)O)[C@@H](C)O; NMeL = CN[C@@H](CC(C)C)C(=O)O; NMeV = CN[C@H](C(=O)O)C(C)C; d(β3hA) = C[C@@H](N)CC(=O)O; NMeAbu = CC[C@H](NC)C(=O)O; NMeA = CN[C@@H](C)C(=O)O; Abu = CC[C@H](N)C(=O)O; Sar = CNCC(=O)O; tBu = CC(C)(C)*

compound	Papp A→B, nm/s
CC[C@@H]1NC(=O)CN(C)C(=O)[C@H]([C@@H](C)O)NC(=O)[C@H](CC(C)C)N(C)C(=O)[C@H](C(C)C)NC(=O)[C@H](Cc2ccccc2)N(C)C(=O)[C@H](C)N(C)C(=O)[C@@H](C)NC(=O)C[C@@H](C)NC(=O)[C@H](C(C)C)N(C)C(=O)[C@H](Cc2ccccc2)N(C)C(=O)[C@H](COC(C)(C)C)NC(=O)[C@H](CC(C)C)N(C)C1=O [pd128] (cyclo([Abu][NMeL]S(tBu)[NMeF][NMeV][d(β3hA)][dA][NMeA][NMeF]V[NMeL]T[Sar]))	0.5
CC[C@@H]1NC(=O)[C@H](CC(C)C)N(C)C(=O)[C@H]([C@@H](C)CC)NC(=O)[C@H](CC(C)C)N(C)C(=O)C[C@@H](C)NC(=O)[C@H](C(C)C)N(C)C(=O)[C@H](CC(C)C)NC(=O)[C@H](CC)N(C)C(=O)[C@H](Cc2ccccc2)N(C)C(=O)[C@@H]2CCCN2C(=O)[C@H](CC(C)C)NC(=O)[C@H]([C@@H](C)O)N(C)C(=O)[C@H](C)NC(=O)[C@H](CC(C)C)N(C)C1=O [pd053] (cyclo(A[NMeT]LP[NMeF][NMeAbu]L[NMeV][d(β3hA)][NMeL]I[NMeL][Abu][NMeL]))	16.4
